- SUBJECT_OF_TEST: recombinant soluble homotrimeric HA of A/Egypt/3300-NAMRU3/08 (H5N1) (Influenza A virus A/Egypt/3300-NAMRU3/2008 (H5N1))
- MEASUREMENT_DESCRIPTION: HA microarray, BCC supernatant
- CONDITIONS: remark: other sources report otherwise
# if value of Trimeric HA Binding RLU reaches 40000 RLU, tag Criterion met; if it stays below, tag Criterion not met

*Q* Reported Trimeric HA Binding RLU reaches at least 40000 RLU for TCN-555 (5246_L16) (antibody, V domains shown) VH: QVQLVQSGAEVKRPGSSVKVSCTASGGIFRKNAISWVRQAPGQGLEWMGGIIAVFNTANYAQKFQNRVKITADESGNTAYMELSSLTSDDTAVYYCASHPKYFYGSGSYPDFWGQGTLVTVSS VL: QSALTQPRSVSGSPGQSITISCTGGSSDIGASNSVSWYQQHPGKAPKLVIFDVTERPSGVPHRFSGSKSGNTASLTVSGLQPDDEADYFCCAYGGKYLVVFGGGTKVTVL ?
*A* Criterion met

*Q* Reported Trimeric HA Binding RLU reaches at least 40000 RLU for TCN-523 (5248_A17) (antibody, V domains shown) VH: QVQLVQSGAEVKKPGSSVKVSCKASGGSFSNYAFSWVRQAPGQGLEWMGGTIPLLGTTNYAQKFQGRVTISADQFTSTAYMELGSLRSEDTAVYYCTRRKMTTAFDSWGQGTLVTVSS VL: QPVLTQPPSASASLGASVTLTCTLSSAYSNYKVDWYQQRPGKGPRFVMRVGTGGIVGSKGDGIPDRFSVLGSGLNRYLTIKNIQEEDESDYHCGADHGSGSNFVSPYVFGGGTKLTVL ?
*A* Criterion not met

*Q* Reported Trimeric HA Binding RLU reaches at least 40000 RLU for TCN-539 (5056_A08) (antibody, V domains shown) VH: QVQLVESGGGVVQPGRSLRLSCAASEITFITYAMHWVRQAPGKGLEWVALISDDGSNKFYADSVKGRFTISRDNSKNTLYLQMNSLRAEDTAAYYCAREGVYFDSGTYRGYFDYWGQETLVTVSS VL: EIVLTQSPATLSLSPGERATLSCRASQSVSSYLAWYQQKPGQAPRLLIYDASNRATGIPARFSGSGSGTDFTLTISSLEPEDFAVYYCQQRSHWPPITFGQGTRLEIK ?
*A* Criterion not met

*Q* Reported Trimeric HA Binding RLU reaches at least 40000 RLU for TCN-530 (5248_H10a) (antibody, V domains shown) VH: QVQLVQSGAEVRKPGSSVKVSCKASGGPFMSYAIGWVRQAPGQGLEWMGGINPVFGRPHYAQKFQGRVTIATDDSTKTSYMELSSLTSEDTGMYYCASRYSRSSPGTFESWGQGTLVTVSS VL: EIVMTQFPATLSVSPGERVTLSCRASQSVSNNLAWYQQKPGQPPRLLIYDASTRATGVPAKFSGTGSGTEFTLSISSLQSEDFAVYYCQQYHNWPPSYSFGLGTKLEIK ?
*A* Criterion not met

*Q* Reported Trimeric HA Binding RLU reaches at least 40000 RLU for TCN-521 (3280_D18) (antibody, V domains shown) VH: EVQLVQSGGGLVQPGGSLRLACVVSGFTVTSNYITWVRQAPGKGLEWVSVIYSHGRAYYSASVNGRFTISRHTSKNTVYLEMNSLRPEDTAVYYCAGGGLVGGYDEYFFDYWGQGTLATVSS VL: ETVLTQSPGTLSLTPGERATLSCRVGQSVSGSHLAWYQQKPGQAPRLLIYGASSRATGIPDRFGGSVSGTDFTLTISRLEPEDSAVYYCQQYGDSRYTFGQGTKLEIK ?
*A* Criterion met

*Q* Reported Trimeric HA Binding RLU reaches at least 40000 RLU for TCN-537 (3194_D21) (antibody, V domains shown) VH: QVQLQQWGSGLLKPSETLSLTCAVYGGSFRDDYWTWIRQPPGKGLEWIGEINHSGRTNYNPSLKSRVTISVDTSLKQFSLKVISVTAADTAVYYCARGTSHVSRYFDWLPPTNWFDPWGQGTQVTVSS VL: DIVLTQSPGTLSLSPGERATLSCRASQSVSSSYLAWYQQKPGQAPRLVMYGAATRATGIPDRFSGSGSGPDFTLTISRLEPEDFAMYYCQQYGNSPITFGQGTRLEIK ?
*A* Criterion not met

*Q* Reported Trimeric HA Binding RLU reaches at least 40000 RLU for TCN-533 (5256_A17) (antibody, V domains shown) VH: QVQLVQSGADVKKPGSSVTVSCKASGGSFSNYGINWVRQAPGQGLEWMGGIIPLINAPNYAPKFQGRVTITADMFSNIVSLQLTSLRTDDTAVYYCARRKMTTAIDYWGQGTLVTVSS VL: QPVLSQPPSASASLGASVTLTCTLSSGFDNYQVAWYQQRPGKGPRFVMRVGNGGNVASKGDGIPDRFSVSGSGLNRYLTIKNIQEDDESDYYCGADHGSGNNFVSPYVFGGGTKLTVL ?
*A* Criterion not met

*Q* Reported Trimeric HA Binding RLU reaches at least 40000 RLU for TCN-551 (5243_D01) (antibody, V domains shown) VH: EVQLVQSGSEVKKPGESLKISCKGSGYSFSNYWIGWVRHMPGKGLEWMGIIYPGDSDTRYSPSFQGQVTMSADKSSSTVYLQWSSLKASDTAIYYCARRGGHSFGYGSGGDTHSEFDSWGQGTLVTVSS VL: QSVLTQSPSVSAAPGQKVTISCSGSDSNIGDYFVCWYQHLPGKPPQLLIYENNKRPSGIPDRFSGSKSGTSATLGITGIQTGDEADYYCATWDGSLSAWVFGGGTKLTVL ?
*A* Criterion met
